# Target: Peptidyl-glycine alpha-amidating monooxygenase (Homo sapiens)
# Assay protocol: Competitive binding affinity to PAM secreted from human DMS53 cells using (R)-Tyr-(S)-ValGly as substrate after 2 hrs by HPLC analysis
# Set-up: species or system DMS-53
Readout: pIC50
By convention, pIC50 is the negative base-10 log of a molar concentration.

[[record]]
molecule_smiles = "CCCCCCCCCC(=O)NCC(=O)O"
readout = "pIC50"
assay_value = 3.96


// pIC50 lookup, key: "CCCCCCCCCC(=O)OCC(=O)O"
4.52

----------
# Target: Peptidyl-glycine alpha-amidating monooxygenase (Homo sapiens, UniProt P19021)
# Sequence (P19021 whole entry): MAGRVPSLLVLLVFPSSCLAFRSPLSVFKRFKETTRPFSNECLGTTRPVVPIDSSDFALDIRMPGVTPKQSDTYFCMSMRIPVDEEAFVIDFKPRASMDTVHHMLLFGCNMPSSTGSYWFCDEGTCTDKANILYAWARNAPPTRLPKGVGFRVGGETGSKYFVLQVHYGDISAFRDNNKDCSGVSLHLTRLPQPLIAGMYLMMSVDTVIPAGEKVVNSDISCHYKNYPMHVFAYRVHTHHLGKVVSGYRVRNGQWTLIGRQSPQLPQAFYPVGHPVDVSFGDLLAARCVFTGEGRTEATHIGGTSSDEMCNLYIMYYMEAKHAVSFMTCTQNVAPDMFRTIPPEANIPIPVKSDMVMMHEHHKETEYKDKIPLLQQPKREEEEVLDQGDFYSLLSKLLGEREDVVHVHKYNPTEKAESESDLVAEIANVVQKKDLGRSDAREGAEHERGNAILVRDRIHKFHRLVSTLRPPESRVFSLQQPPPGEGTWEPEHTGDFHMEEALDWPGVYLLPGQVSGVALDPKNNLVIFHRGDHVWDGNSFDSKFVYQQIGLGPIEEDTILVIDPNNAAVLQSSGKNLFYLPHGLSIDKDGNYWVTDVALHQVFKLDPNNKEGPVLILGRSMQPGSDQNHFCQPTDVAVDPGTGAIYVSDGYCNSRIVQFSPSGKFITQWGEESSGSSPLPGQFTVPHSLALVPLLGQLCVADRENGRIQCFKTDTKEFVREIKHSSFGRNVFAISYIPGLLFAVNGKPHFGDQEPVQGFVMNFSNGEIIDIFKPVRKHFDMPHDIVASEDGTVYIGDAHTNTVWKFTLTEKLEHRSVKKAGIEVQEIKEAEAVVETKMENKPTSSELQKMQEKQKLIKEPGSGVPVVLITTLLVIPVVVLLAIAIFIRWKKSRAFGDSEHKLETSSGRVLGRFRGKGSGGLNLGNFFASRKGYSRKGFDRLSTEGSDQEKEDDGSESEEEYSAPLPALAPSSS
# Assay protocol: Competitive inhibition of PAM secreted from human PC3 cells by Dixon plot analysis
Readout: pKi
// pKi here means minus log10 of the molar concentration (mol/L)

Entry "O=C(O)C/C=C/c1ccccc1" : reported pKi = ?
7.02
